All values here come from PubChem BioAssay AID1159580.

Overview of reported normalized growth across a group of molecules:
experiment: chemical genetic growth profiling, strain panel (AID 1159580);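 also: tested at 20 µM; growth read once vehicle control cultures reached saturation at 30 °C; 1 = growth at the plate median or of vehicle wells; lower values mean less growth of the strain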; conditions: S. cerevisiae deletion strains, growth OD, locus YCL029C, strain bik1, hits give low values
The whole screen tested about 5,500 compounds, of which about 2,000 (36%) were called active. Another 18% or so got no clear call; they are omitted. Some of the results follow.
Output: the number by itself.

Known results for molecules:
MOLECULE	normalized growth
O=C(O)c1cc(O)ccc1O	0.994
CNC[C@H](O)c1cccc(O)c1	1.02
NC(=O)c1ccccc1O	1.02

Ask | Recorded normalized growth of "COc1ccc(-c2cc(=O)c3c(O)cc(O)cc3o2)cc1" , please.
Reply | 0.976

Ask | If you can, please state the reported normalized growth value of "CC1(C)S[C@@H]2[C@H](NC(=O)[C@@H](N)c3ccc(O)cc3)C(=O)N2[C@H]1C(=O)O" .
Reply | 1.01

###

experiment: chemical genetic growth profiling, strain panel (AID 1159580);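 also: tested at 20 µM; growth read once vehicle control cultures reached saturation at 30 °C; 1 = growth at the plate median or of vehicle wells; lower values mean less growth of the strain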; conditions: S. cerevisiae deletion strains, growth OD, locus YIR030C, strain dcg1, hits give low values
The campaign covered roughly 5,500 compounds. About 2,000 (36%) were called active. Not shown: some 18% with an inconclusive outcome. Some of the results follow.
Entries annotated with measured normalized growth

# example entries with known answers
COMPOUND	VALUE KIND	ENDPOINT VALUE
C[C@@H](CO)NC(=O)C1C=C2c3cccc4[nH]cc(c34)C[C@H]2N(C)C1 (some centres undefined)	normalized growth	0.994 (inactive)
CN(C)C(=O)C(CCN1CCC(O)(c2ccc(Cl)cc2)CC1)(c1ccccc1)c1ccccc1	normalized growth	1.02 (inactive)
NC[C@H]1O[C@H](O[C@H]2[C@H](O)[C@@H](O[C@H]3O[C@H](CO)[C@@H](O)[C@H](N)[C@H]3O)[C@H](N)C[C@@H]2N)[C@H](N)[C@@H](O)[C@@H]1O	normalized growth	1 (inactive)
O=C(CCCN1CCC2(CC1)C(=O)NCN2c1ccccc1)c1ccc(F)cc1	normalized growth	0.994 (inactive)
C[C@@H]1O[C@@H](O[C@H]2CC[C@]3(C=O)C4CC[C@]5(C)[C@@H](C6=CC(=O)OC6)CC[C@]5(O)C4CC[C@]3(O)C2)[C@H](O)[C@H](O)[C@H]1O (some centres undefined)	normalized growth	0.995 (inactive)
NC(N)=Nc1ccc(Cl)cc1	normalized growth	0.992 (inactive)
CCn1nc(C(=O)O)c(=O)c2cc3c(cc21)OCO3	normalized growth	1.01 (inactive)
CC1(C)O[C@@H]2CC3C4C[C@H](F)C5=CC(=O)CC[C@]5(C)C4[C@@H](O)C[C@]3(C)[C@]2(C(=O)CO)O1 (some centres undefined)	normalized growth	1.01 (inactive)

Ask | Need normalized growth, item CC(=O)OC1CC[C@@]2(C)C(CCC3C2CC[C@]2(C)C(C4=CC(=O)OC4)C(OC(C)=O)CC32O)C1 (some centres undefined)
Reply | 1 (inactive)

Ask | Please look up its normalized growth: NCC(O)CC(=O)O (centres undefined)
Reply | 1 (inactive)

Ask | Any idea what normalized growth was measured for CC(=O)O[C@@H]1CC2C(C)(C)CCC[C@]2(C)C2CC[C@]3(C)C(=CC(=O)O[C@H]3c3ccoc3)[C@@]21C (some centres undefined) ?
Reply | 1 (inactive)

Ask | Tell me the measured normalized growth of CC1(C)Oc2ccc3ccc(=O)oc3c2CC1O (centres undefined) , please.
Reply | 1.01 (inactive)

Ask | normalized growth for C[C@H]1O[C@@H](O[C@H]2[C@@H](O)C[C@H](O[C@H]3[C@@H](O)C[C@H](O[C@H]4CC[C@]5(C)C6CC[C@]7(C)[C@@H](C8=CC(=O)OC8)CC[C@]7(O)C6CC[C@@H]5C4)O[C@@H]3C)O[C@@H]2C)C[C@H](O)[C@@H]1O (some centres undefined) ?
Reply | 0.976 (inactive)

Ask | normalized growth lookup needed for "CN(C)CC[C@H](c1ccc(Cl)cc1)c1ccccn1" , thanks.
Reply | 0.991 (inactive)

Ask | Report normalized growth for "CC1(C)[C@@H]2CC[C@@]1(C)C(=O)C2" please.
Reply | 0.996 (inactive)

Ask | May I ask what normalized growth has been recorded for CC(C)(C)NCC(O)COc1cccc2c1C[C@H](O)[C@H](O)C2 (some centres undefined) ?
Reply | 0.984 (inactive)

Ask | Consider the compound shown here: "O=C(Oc1ccccc1C(=O)O)c1ccccc1O" What is its recorded normalized growth?
Reply | 0.992 (inactive)

Ask | Recorded normalized growth for "C/C=C(/C)C(=O)O[C@@H]1Cc2c(ccc3ccc(=O)oc23)OC1(C)C" , please?
Reply | 0.989 (inactive)

Ask | Query: normalized growth; subject: "NC(=O)c1ccccc1O"
Reply | 1.01 (inactive)

Ask | What value of measured normalized growth is listed for "CC1(C)S[C@@H]2[C@H](NC(=O)[C@@H](N)c3ccc(O)cc3)C(=O)N2[C@H]1C(=O)O" ?
Reply | 1 (inactive)

Ask | Would you kindly share the measured normalized growth for "O=C(CCCN1CCC(O)(c2ccc(Cl)cc2)CC1)c1ccc(F)cc1" ?
Reply | 0.979 (inactive)
